MEASUREMENT_TARGET: Cholinesterase (Homo sapiens, UniProt P06276)
Sequence (P06276 whole entry): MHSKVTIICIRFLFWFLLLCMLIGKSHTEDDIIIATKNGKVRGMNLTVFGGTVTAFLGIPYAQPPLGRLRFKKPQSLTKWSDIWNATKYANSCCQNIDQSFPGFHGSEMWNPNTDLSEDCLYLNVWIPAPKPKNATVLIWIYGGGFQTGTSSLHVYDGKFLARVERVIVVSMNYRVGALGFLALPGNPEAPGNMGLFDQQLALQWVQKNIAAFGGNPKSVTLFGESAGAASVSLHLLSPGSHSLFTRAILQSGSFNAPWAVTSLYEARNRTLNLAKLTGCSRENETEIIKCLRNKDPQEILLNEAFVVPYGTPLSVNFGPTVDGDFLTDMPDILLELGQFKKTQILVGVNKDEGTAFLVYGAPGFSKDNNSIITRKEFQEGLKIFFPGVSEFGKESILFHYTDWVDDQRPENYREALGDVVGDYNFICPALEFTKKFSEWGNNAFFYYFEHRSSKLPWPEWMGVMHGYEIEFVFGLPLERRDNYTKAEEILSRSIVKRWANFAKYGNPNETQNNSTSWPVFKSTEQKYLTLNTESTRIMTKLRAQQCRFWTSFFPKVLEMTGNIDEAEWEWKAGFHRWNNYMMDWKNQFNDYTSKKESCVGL
TEST_DESCRIPTION: Potency index, ratio of galantamine IC50 to compound IC50 for inhibition of BChE (unknown origin)
PROPERTY_MEASURED: Ratio IC50

[ask] Which Ratio IC50 reading was recorded for the molecule COc1cc(O)c(C/C=C(\C)CCC=C(C)C)c(-c2cc3ccc(O)cc3o2)c1CC=C(C)C ?
[reply] < 10

[ask] Which Ratio IC50 reading was recorded for the molecule CC(C)=CCC/C(C)=C/Cc1c(O)cc(O)c(CC=C(C)C)c1-c1cc2ccc(O)cc2o1 ?
[reply] 37

[ask] Which Ratio IC50 reading was recorded for the molecule COc1cc(O)c(CC=C(C)C)c(-c2cc3ccc(O)cc3o2)c1C/C=C(\C)CCC=C(C)C ?
[reply] < 10

[ask] Which Ratio IC50 reading was recorded for the molecule COc1cc(-c2cc3ccc(O)cc3o2)c(CC=C(C)C)c2c1C=CC(C)(CCC=C(C)C)O2 (stereo unspecified) ?
[reply] < 10

[ask] Which Ratio IC50 reading was recorded for the molecule COc1ccc2cc(-c3cc(O)c4c(c3CC=C(C)C)OC(C)(CCC=C(C)C)C=C4)oc2c1 (stereo unspecified) ?
[reply] < 10

[ask] Which Ratio IC50 reading was recorded for the molecule COc1ccc2cc(-c3c(CC=C(C)C)c(O)cc(O)c3C/C=C(\C)CCC=C(C)C)oc2c1 ?
[reply] < 10

* * *

MEASUREMENT_TARGET: Acetylcholinesterase (Electrophorus electricus) (UniProt O42275)
TEST_DESCRIPTION: Inhibition of electric eel AChE at 0.1 mg/ml using acetylthiocholine as substrate preincubated for 15 mins followed by substrate addition measured after 5 mins by Ellman's method
Activity calls are given as the source filed them. The calls are words filed in the database; no cut-off is given here.
PROPERTY_MEASURED: inhibition

COc1cc(OC)c(C/C=C(\C)CCC=C(C)C)c(-c2cc3ccc(O)cc3o2)c1CC=C(C)C = inactive
COc1cc(O)c(CC=C(C)C)c(-c2cc3ccc(O)cc3o2)c1C/C=C(\C)CCC=C(C)C = inactive
COc1ccc2cc(-c3c(CC=C(C)C)c(O)cc(O)c3C/C=C(\C)CCC=C(C)C)oc2c1 = inactive
COc1cc(-c2cc3ccc(O)cc3o2)c(CC=C(C)C)c2c1C=CC(C)(CCC=C(C)C)O2 (stereo not given) = inactive
COc1cc(O)c(C/C=C(\C)CCC=C(C)C)c(-c2cc3ccc(O)cc3o2)c1CC=C(C)C = inactive

[ask] Which inhibition reading was recorded for the molecule CC(C)=CCc1c(-c2cc3ccc(O)cc3o2)cc2c3c1O[C@@]1(C)CCC([C@@H]3C1)C(C)(C)O2 (stereo not given in full) ?
[reply] inactive

[ask] Which inhibition reading was recorded for the molecule Oc1cc(O)cc(/C=C/c2ccc(O)cc2O)c1 ?
[reply] inactive

[ask] Which inhibition reading was recorded for the molecule Oc1cc(O)c2c(c1)O[C@H](c1ccc(O)c(O)c1)[C@@H](O)C2 ?
[reply] inactive

[ask] Which inhibition reading was recorded for the molecule COc1ccc2cc(-c3cc(OC)c4c(c3CC=C(C)C)OC(C)(CCC=C(C)C)C=C4)oc2c1 (stereo not given) ?
[reply] inactive

[ask] Which inhibition reading was recorded for the molecule COc1ccc2cc(-c3cc(O)c4c(c3CC=C(C)C)OC(C)(CCC=C(C)C)C=C4)oc2c1 (stereo not given) ?
[reply] inactive

* * *

TEST_DESCRIPTION: Selectivity ratio of IC50 for BChE (unknown origin) to IC50 for electric eel AChE
Lab note: anything with Ratio IC50 below 8 is marked 1 (yes); values at 8 or higher are marked 0 (no).

[ask] hey, is Ratio IC50 for COc1cc(O)c(CC=C(C)C)c(-c2cc3ccc(O)c(C/C=C(\C)CCC=C(C)C)c3o2)c1 lower than 8 or not?
[reply] 1 (yes)

[ask] hey, is Ratio IC50 for COc1cc(OC)c(CC=C(C)C)c(-c2cc3ccc(O)cc3o2)c1CC=C(C)C lower than 8 or not?
[reply] 1 (yes)

[ask] hey, is Ratio IC50 for CC(C)=CCCC1(C)C=Cc2c(O)cc(-c3cc4ccc(O)cc4o3)c(CC=C(C)C)c2O1 (stereo not given) lower than 8 or not?
[reply] 0 (no)

[ask] hey, is Ratio IC50 for CC(C)=CCC/C(C)=C/Cc1c(O)cc(O)c(CC=C(C)C)c1-c1cc2ccc(O)cc2o1 lower than 8 or not?
[reply] 1 (yes)

* * *

MEASUREMENT_TARGET: Acetylcholinesterase (Electrophorus electricus, UniProt O42275)
Sequence (O42275 whole entry): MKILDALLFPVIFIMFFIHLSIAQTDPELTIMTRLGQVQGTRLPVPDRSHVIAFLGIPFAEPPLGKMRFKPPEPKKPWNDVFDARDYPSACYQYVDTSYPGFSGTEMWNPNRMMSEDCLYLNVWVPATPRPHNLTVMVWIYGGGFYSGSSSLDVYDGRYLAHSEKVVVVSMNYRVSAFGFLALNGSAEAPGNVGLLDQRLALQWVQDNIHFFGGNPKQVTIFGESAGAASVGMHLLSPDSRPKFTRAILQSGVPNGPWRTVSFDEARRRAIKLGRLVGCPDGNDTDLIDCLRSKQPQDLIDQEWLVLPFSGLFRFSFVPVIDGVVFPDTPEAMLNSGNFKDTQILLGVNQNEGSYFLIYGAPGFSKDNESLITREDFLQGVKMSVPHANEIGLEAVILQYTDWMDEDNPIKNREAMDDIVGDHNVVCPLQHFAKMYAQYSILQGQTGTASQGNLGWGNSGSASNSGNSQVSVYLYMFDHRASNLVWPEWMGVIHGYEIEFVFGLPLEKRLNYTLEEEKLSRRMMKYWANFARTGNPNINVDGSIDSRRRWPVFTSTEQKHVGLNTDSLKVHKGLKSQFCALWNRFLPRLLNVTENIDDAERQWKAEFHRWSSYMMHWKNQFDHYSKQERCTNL
PROPERTY_MEASURED: IC50 (µM)
Write the answer as a number in µM, unit excluded.

[ask] Which IC50 reading was recorded for the compound CC(C)=CCCC1(C)C=Cc2c(O)cc(-c3cc4c(O)cc(O)cc4o3)c(CC=C(C)C)c2O1 (stereo not given) ?
[reply] 1.1

[ask] Which IC50 reading was recorded for the compound COc1cc(O)c(CC=C(C)C)c(-c2cc3ccc(O)c(C/C=C(\C)CCC=C(C)C)c3o2)c1 ?
[reply] 61.9

[ask] Which IC50 reading was recorded for the compound CC(C)=CCC/C(C)=C/Cc1c(O)cc(O)c(CC=C(C)C)c1-c1cc2ccc(O)cc2o1 ?
[reply] 1.08

[ask] Which IC50 reading was recorded for the compound COc1cc(OC)c(CC=C(C)C)c(-c2cc3ccc(O)cc3o2)c1CC=C(C)C ?
[reply] 27.4

[ask] Which IC50 reading was recorded for the compound CC(C)=CCCC1(C)C=Cc2c(O)cc(-c3cc4ccc(O)cc4o3)c(CC=C(C)C)c2O1 (stereo not given) ?
[reply] 0.87

* * *

MEASUREMENT_TARGET: Cholinesterase (Homo sapiens)
PROPERTY_MEASURED: IC50 (nM)
Write the answer as a number in nM, unit excluded.

[ask] Which IC50 reading was recorded for the compound COc1cc(-c2cc3ccc(O)cc3o2)c(CC=C(C)C)c2c1C=CC(C)(CCC=C(C)C)O2 (configuration not stated) ?
[reply] 310

[ask] Which IC50 reading was recorded for the compound COc1ccc2cc(-c3cc(O)c4c(c3CC=C(C)C)OC(C)(CCC=C(C)C)C=C4)oc2c1 (configuration not stated) ?
[reply] 1110

[ask] Which IC50 reading was recorded for the compound Oc1cc(O)cc(/C=C/c2ccc(O)cc2O)c1 ?
[reply] 2950

[ask] Which IC50 reading was recorded for the compound COc1cc(O)c(C/C=C(\C)CCC=C(C)C)c(-c2cc3ccc(O)cc3o2)c1CC=C(C)C ?
[reply] 510

[ask] Which IC50 reading was recorded for the compound COc1cc(O)c(CC=C(C)C)c(-c2cc3ccc(O)cc3o2)c1C/C=C(\C)CCC=C(C)C ?
[reply] 630

[ask] Which IC50 reading was recorded for the compound COc1cc(O)c(CC=C(C)C)c(-c2cc3ccc(O)c(C/C=C(\C)CCC=C(C)C)c3o2)c1 ?
[reply] 47200

[ask] Which IC50 reading was recorded for the compound CC(C)=CCc1c(-c2cc3ccc(O)cc3o2)cc2c3c1O[C@@]1(C)CCC([C@@H]3C1)C(C)(C)O2 (some centres not stated) ?
[reply] 1560

[ask] Which IC50 reading was recorded for the compound COc1ccc2cc(-c3c(CC=C(C)C)c(O)cc(O)c3C/C=C(\C)CCC=C(C)C)oc2c1 ?
[reply] 990

[ask] Which IC50 reading was recorded for the compound CC(C)=CCC/C(C)=C/Cc1c(O)cc(O)c(CC=C(C)C)c1-c1cc2ccc(O)cc2o1 ?
[reply] 100

[ask] Which IC50 reading was recorded for the compound COc1cc(OC)c(CC=C(C)C)c(-c2cc3ccc(O)cc3o2)c1CC=C(C)C ?
[reply] 13900

[ask] Which IC50 reading was recorded for the compound CC(C)=CCCC1(C)C=Cc2c(O)cc(-c3cc4c(O)cc(O)cc4o3)c(CC=C(C)C)c2O1 (configuration not stated) ?
[reply] 8860

[ask] Which IC50 reading was recorded for the compound CC(C)=CCCC1(C)C=Cc2c(O)cc(-c3cc4ccc(O)cc4o3)c(CC=C(C)C)c2O1 (configuration not stated) ?
[reply] 14900
